System: THP-1 cells
Assay: LPS induced cytokine (TNFα and IL8) production assay in THP-1 cells
Type: cell-based
Settings: Homo sapiens, 300 ng/mL LPS, read-out: TNFα production IC50
quantity_name: IC50

# annotated cases, reported IC50 shown
In [3]: df
Out[3]:
                                   compound       result
0  NC(=O)C(F)(F)C[C@H]1CCc2sc3ncnc(O[C@H]4CC[C@H](N5CCOCC5)CC4)c3c21     ≤ 0.5 µM
1  OC[C@@H]1CCc2sc3ncnc(O[C@H]4CC[C@H](N5CCOCC5)CC4)c3c2C1  0.5 to 1 µM

What value of IC50 has been recorded for this entry: NC(=O)[C@@H](O)C[C@H]1CCc2sc3ncnc(N[C@H]4CC[C@H](N5CCOCC5)CC4)c3c21 ≤ 0.5 µM

Here is the next compound: Cn1cc(Nc2nc(O[C@H]3CC[C@H](N(C)C)CC3)c3c4c(sc3n2)CCC4CC(N)=O)cn1 (stereo in doubt) [Compound I-224] ≤ 0.5 µM

Then what about the compound [2H]C1([2H])c2sc3ncnc(O[C@H]4CC[C@H](N5CCOCC5)CC4)c3c2[C@@H](CC(N)=O)C1([2H])[2H] ? 0.5 to 1 µM

And then CN[C@H]1CC[C@H](Oc2ncnc3sc4c(c23)[C@@H](CC(N)=O)CC4)CC1 , what is it? 1 to 5 µM

* * *

Protein target, amino acids: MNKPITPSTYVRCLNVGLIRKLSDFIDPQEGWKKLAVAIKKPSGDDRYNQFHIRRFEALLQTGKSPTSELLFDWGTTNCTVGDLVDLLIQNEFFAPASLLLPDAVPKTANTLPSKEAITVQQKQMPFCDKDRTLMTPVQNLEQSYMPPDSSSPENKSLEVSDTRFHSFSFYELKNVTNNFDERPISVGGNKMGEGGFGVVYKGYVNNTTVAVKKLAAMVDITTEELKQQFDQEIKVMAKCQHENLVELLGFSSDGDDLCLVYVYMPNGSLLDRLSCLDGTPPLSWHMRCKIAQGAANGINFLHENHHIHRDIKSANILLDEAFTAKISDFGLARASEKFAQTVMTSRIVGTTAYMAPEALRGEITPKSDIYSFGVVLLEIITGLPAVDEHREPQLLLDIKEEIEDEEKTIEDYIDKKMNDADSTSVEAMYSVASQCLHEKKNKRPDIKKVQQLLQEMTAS
Entries and their IC50

Examples with answers:
In [3]: df
Out[3]:
                                   molecule      result
0  CN(C)[C@H]1CC[C@H](Oc2ncnc3sc4c(c23)[C@@H](CCO)CC4)CC1      < 5 µM
1  CN(C)[C@H]1CC[C@H](Oc2ncnc3sc4c(c23)C(CC#N)CC4)CC1 (stereo partly shown)  5 to 20 µM
2  CCOC(=O)C1CCc2sc3ncnc(N[C@H]4CC[C@H](N(C)C)CC4)c3c21 (stereo partly shown)  5 to 20 µM
3  CN(C)[C@H]1CC[C@H](Oc2ncnc3sc4c(c23)C(C(=O)O)CC4)CC1 (stereo partly shown)     > 50 µM

Could you now look at the following molecule, please?
# input molecule: CN(C)[C@H]1CC[C@H](Oc2ncnc3sc4c(c23)[C@@H](C[C@H](N)C(N)=O)CC4)CC1 ; wanted: its IC50 < 5 µM
